METHOD SUMMARY: Example 1.2 solubility of losartan potassium in sodium phosphate buffers by HPLC
Format: physicochemical
PARTICULARS: sodium phosphate buffer, aqueous buffer, thermodynamic from solid; SPB pH = 8.2; 480 hours; room temperature; HPLC
READOUT KIND: solubility at 480 h

Sample `CCCCc1nc(Cl)c(CO)n1Cc1ccc(-c2ccccc2-c2nnn[nH]2)cc1.[K]` ; solubility at 480 h observed: > 250 mg/mL

----------
METHOD SUMMARY: Example 1.2 solubility of losartan potassium in sodium phosphate buffers by HPLC
Assay type: physicochemical
PARTICULARS: sodium phosphate buffer, aqueous buffer, thermodynamic from solid; SPB pH = 7.4; 0 hours; room temperature; HPLC
READOUT KIND: solubility at 0 h

Sample CCCCc1nc(Cl)c(CO)n1Cc1ccc(-c2ccccc2-c2nnn[nH]2)cc1.[K] [losartan potassium] ; solubility at 0 h observed: > 250 mg/mL

----------
METHOD SUMMARY: Example 1.2 solubility of losartan potassium in sodium phosphate buffers by HPLC
Format: physicochemical
PARTICULARS: sodium phosphate buffer, aqueous buffer, thermodynamic from solid; SPB pH = 7.4; 48 hours; room temperature; HPLC
READOUT KIND: solubility at 48 h

The molecule CCCCc1nc(Cl)c(CO)n1Cc1ccc(-c2ccccc2-c2nnn[nH]2)cc1.[K] [losartan potassium] showed solubility at 48 h equal to > 250 mg/mL

----------
METHOD SUMMARY: Example 1.2 solubility of losartan potassium in sodium phosphate buffers by HPLC
Assay type: physicochemical
PARTICULARS: sodium phosphate buffer, aqueous buffer, thermodynamic from solid; SPB pH = 1.7; 0 hours; room temperature; HPLC
READOUT KIND: solubility at 0 h (µg/mL)
Express the result in µg/mL but write the number alone.

Reported solubility at 0 h for `CCCCc1nc(Cl)c(CO)n1Cc1ccc(-c2ccccc2-c2nnn[nH]2)cc1.[K]` was 1070

----------
METHOD SUMMARY: Example 1.1 solubility of losartan potassium with and without buffering agent (visual)
Assay type: physicochemical
PARTICULARS: sodium phosphate buffer, aqueous buffer, thermodynamic from solid; SPB 10 mM, pH 1.9; visual
READOUT KIND: solubility (µg/mL)
Give the value, in units of µg/mL, as a plain number.

Record summary for `CCCCc1nc(Cl)c(CO)n1Cc1ccc(-c2ccccc2-c2nnn[nH]2)cc1.[K]` : reported solubility = 48

----------
METHOD SUMMARY: Example 1.1 solubility of losartan potassium with and without buffering agent (visual)
Type: physicochemical
PARTICULARS: sodium phosphate buffer, aqueous buffer, thermodynamic from solid; SPB 10 mM, pH 7.2; visual
Protocol: After 24 hours, the samples were examined. […] Formulations at these pHs of about 7 or greater should prevent precipitation of the drug.
READOUT KIND: solubility (mg/mL)
I only need the number, in mg/mL, no unit after it.

Measured solubility of `CCCCc1nc(Cl)c(CO)n1Cc1ccc(-c2ccccc2-c2nnn[nH]2)cc1.[K]` : 300
